Target: PAR4 (Homo sapiens, UniProt Q96RI0)
Sequence (Q96RI0 18-385): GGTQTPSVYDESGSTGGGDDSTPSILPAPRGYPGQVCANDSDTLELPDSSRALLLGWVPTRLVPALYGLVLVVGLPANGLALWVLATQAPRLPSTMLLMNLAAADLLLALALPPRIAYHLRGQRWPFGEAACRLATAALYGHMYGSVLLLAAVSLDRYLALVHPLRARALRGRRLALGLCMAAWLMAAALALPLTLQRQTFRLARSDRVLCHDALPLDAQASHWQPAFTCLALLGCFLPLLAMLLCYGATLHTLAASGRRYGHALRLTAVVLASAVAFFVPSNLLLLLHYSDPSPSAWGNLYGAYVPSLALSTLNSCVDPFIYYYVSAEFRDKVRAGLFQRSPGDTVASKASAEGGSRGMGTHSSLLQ
Experiment: Human platelet activity assay, flow cytometry, γ-thrombin activation
Type: cell-based
Set-up: endogenous in cells; host or cells: washed human platelets from healthy volunteers
Conditions: γ-thrombin activation of PAR4, human platelets; read-out: IC50, concentration-response curve (CRC)
MEASUREMENT NAME: IC50 (nM)
Field: numeric (nM). Do not append units.

Qu. IC50 for Cc1nc(NC(=O)c2cc(-c3ccccc3)n(-c3ccccc3)n2)n[nH]1 [Compound 7] ?
Ans. 2300
